biological target: T1, cynomolgus CD3 epsilon/delta heterodimer, biotin labeled (cynomolgus, UniProt Q95LI8 22-105, biotin labeled); assay: SPR, biotinylated CD3e/d on SA chip;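 note: analytes injected over immobilized CD3 heterodimer, association 60-120 s and dissociation 120-420 s, rate and affinity constants obtained by fitting sensorgrams to a 1:1 binding model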
T1 construct: bought (Acro Biosystems); also called Cyno CD3e/d
T1 sequence (chain, as listed by the source mutant, chain 1 of 2): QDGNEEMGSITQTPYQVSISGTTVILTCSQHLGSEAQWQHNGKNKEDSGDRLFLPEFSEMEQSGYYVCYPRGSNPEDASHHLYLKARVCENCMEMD
T1 sequence (Q95LI8 22-105, stated change not applied, chain 2 of 2): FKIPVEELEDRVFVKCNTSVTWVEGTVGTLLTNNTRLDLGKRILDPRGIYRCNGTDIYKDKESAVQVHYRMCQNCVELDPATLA
binders and their reported Kd

{"BINDER": "ULBP2xCD3 bispecific CD58 fusion containing CD3 variant CD3-A9 (bispecific antibody, V domains shown) VH: EVQLLESGGGLVQPGGSLKLSCAASGFTFNTYAMNWVRKAPGKGLEWVARIRSKYNNYATYYADSVKDRFTISRDDSKNTAYLQMNNLKTEDTAVYYCVRHGSFGNSYVSWFAYWGQGTLVTVSS VL: ELVVTQEPSLTVSPGGTVTLTCRSSTGAVTTSNYANWVQDKPGQAPRGLIGGTNKRAPGTPARFSGSLLGGKAALTLSGVQPEDEAEYYCALWYSQLWVFGGGTKLTVL", "Kd": "0.212 µM"}
{"BINDER": "ULBP2xCD3 bispecific CD58 fusion containing CD3 variant CD3-01 (bispecific antibody, V domains shown) VH: EVQLLESGGGLVQPGGSLKLSCAASGFTFNTYAMNWVRKAPGKGLEWVARIRSKYNNYATYYADSVKDRFTISRDDSKNTAYLQMNNLKTEDTAVYYCVRHGNFGNSYVSWFAYWGQGTLVTVSS VL: ELVVTQEPSLTVSPGGTVTLTCRSSTGAVTTSNYANWVQDKPGQAPRGLIGGTNKRAPGTPARFSGSLLGGKAALTLSGVQPEDEAEYYCALWYSNLWVFGGGTKLTVL", "Kd": "0.0032 µM"}
{"BINDER": "ULBP2xCD3 bispecific CD58 fusion containing CD3 variant CD3-A5 (bispecific antibody, V domains shown) VH: EVQLLESGGGLVQPGGSLKLSCAASGFTFNTYAMNWVRKAPGKGLEWVARIRSKYNNYATYYADSVKDRFTISRDDSKNTAYLQMNNLKTEDTAVYYCVRHGNFGDDYVSWFAYWGQGTLVTVSS VL: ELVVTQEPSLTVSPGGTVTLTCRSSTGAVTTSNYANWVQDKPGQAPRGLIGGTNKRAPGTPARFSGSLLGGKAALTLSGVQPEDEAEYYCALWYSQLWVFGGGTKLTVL", "Kd": "0.368 µM"}
{"BINDER": "ULBP2xCD3 bispecific CD58 fusion containing CD3 variant CD3-A8 (bispecific antibody, V domains shown) VH: EVQLLESGGGLVQPGGSLKLSCAASGFTFNTYAMNWVRKAPGKGLEWVAKIRSKYNNYATYYADSVKDRFTISRDDSKNTAYLQMNNLKTEDTAVYYCVRHGNFGDSYVSWFAYWGQGTLVTVSS VL: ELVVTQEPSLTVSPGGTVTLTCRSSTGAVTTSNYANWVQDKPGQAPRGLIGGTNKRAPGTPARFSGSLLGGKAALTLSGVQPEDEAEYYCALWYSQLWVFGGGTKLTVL", "Kd": "0.137 µM"}
{"BINDER": "ULBP2xCD3 bispecific CD58 fusion containing CD3 variant CD3-A2 (bispecific antibody, V domains shown) VH: EVQLLESGGGLVQPGGSLKLSCAASGFTFNTYAMNWVRKAPGKGLEWVARIRSKYNNYATYYADSVKDRFTISRDDSKNTAYLQMNNLKTEDTAVYYCVRHGNFGNSYVSWFAYWGQGTLVTVSS VL: ELVVTQEPSLTVSPGGTVTLTCRSSTGAVTTSNYANWVQDKPGQAPRGLIGDTNKRAPGTPARFSGSLLGGKAALTLSGVQPEDEAEYYCALWYSNLWVFGGGTKLTVL", "Kd": "0.089 µM"}
{"BINDER": "ULBP2xCD3 bispecific CD58 fusion containing CD3 variant CD3-A6 (bispecific antibody, V domains shown) VH: EVQLLESGGGLVQPGGSLKLSCAASGFTFNDYAMNWVRKAPGKGLEWVARIRSKYNNYATYYADSVKDRFTISRDDSKNTAYLQMNNLKTEDTAVYYCVRHGNFGNSYVSWFAYWGQGTLVTVSS VL: ELVVTQEPSLTVSPGGTVTLTCRSSTGAVTTSNYANWVQDKPGQAPRGLIGGTNKRAPGTPARFSGSLLGGKAALTLSGVQPEDEAEYYCALWYSNLWVFGGGTKLTVL", "Kd": "0.075 µM"}

Provenance of the data: patent US20250197496A1
